Parameter composite z-score: see the listing below.
# test: binders of probe aHhip on microarray, primary screen, stem cell growth factor project, biochemical, small-molecule microarray, fluorescence 635/667 (AID 1087);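 note: score merges spot fluorescence at 667nm with spot signal to noise ratio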
# condition-notes: higher = more signal
quantity-kind: composite z-score

* CO[C@@H]1C=CCC(=O)N[C@@H](C)C(=O)OC[C@@H](OC)[C@H](C)CCCC(=O)OC[C@H]1C | 0.176
* CC[C@@H](c1ccccc1)n1c(=O)n2n(c1=O)[C@H]1[C@H](O)[C@@H]3O[C@@H]3C(=NOC[C@@H](O)COCc3ccco3)[C@H]1CC2 | -0.741
* O=C1[C@H]2[C@H]3[C@H](O)[C@H](O)CC(=NOCc4ccccc4)[C@@H]3CC[C@H]2C(=O)N1Cc1ccc2c(c1)OCO2 | 0.0922
* O=C1CCCC=C1C(O)CCCCBr (stereo unspecified) | -0.0994
* C=Cc1ccc([C@H]2N[C@H](C(=O)O)CC[C@@H]2C)cc1 | 0.0399
* CCOC(=O)[C@H](CC(C)C)NC(=O)CCC1CC(OC(=O)NCCc2ccc(F)cc2)CC2(CCCC(COC(=O)NCC3CCCCC3)O2)O1 (stereo partly specified) | -0.19
* COc1ccc(COC(=O)NN=C2C[C@@H](O)[C@@H](O)[C@@H]3[C@@H]4C(=O)N(c5cccc(Oc6ccccc6)c5)C(=O)[C@@H]4CC[C@@H]23)cc1 | 0.262
* COc1cccc([C@@H]2Oc3ccc(OC)cc3C(=O)[C@H]2O)c1 | -0.0994
* O=C1[C@H]2[C@H]3[C@H](O)[C@H](O)CC(=NO[C@@H]4O[C@H](CO)[C@@H](O)[C@H](O)[C@H]4O)[C@H]3CC[C@H]2C(=O)N1c1cccc(Oc2ccccc2)c1 | -0.0024
* O=C1C[C@@H](O)[C@@H](O)[C@@H]2[C@@H]3C(=O)N(C[C@@H]4CCCO4)C(=O)[C@@H]3CC[C@@H]12 | 0.21
* CCC=CCCC(OC(=O)c1ccc(Br)cc1)C1=CCCCC1=O (stereo unspecified) | 0.0826
* CCOC(=O)[C@H](CC(C)C)NC(=O)CCC1CC(OC(=O)NCc2cccc3ccccc23)CC2(CCCC(COC(=O)NCCOC)O2)O1 (stereo partly specified) | -0.214
* CCOC(=O)CCN1C(=O)[C@H]2[C@H]3[C@H](O)[C@H](O)CC(=NNC(=O)OCc4ccccc4)[C@@H]3CC[C@H]2C1=O | -0.189
* COc1ccc(O[C@@H]2[C@H](O)CO[C@@H]2C=Cc2ccccc2)cc1 | 0.281
* COc1ccc(O[C@H]2C=C[C@@H](c3ccccc3)O[C@@H]2COC(=O)CCC(C)=NOC(C)CN2CCCc3nc(C)c(C)cc32)cc1 (stereo partly specified) | -0.199
* CCOC(=O)[C@H](Cc1ccccc1)NC(=O)CCC1CC(OC(=O)NCCc2ccc(F)cc2)CC2(CCCC(COC(=O)NCCOC)O2)O1 (stereo partly specified) | -0.248

Data provenance: PubChem BioAssay
